pKi: −log10 of the molar value.
5-HTT (Rattus norvegicus, UniProt P31652): reported pKi for various compounds.
Sequence (P31652 whole entry): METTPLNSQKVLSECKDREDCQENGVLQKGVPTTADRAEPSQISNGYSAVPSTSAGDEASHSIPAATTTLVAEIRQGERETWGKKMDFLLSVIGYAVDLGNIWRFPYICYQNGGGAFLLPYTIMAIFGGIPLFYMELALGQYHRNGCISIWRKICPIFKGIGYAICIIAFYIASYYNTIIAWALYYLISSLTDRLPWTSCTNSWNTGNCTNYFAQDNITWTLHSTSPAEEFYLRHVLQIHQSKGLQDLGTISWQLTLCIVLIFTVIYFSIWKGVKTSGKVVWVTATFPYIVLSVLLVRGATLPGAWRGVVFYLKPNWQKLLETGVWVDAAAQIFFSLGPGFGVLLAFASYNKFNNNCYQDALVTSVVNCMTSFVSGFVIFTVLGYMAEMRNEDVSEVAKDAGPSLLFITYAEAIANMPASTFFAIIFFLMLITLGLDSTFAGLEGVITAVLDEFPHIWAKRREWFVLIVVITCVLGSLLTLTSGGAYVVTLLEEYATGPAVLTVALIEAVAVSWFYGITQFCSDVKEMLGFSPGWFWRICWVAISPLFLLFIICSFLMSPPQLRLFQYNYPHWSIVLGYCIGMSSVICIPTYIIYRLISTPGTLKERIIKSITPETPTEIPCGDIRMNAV
QUANTITY_MEASURED: pKi

COMPOUND	QUANTITY_MEASURED	RECORDED_NUMBER
COC(=O)[C@H]1[C@@H](c2ccc(SC(C)C)cc2)C[C@@H]2CC[C@H]1N2C	pKi	6.89
COC(=O)[C@H]1[C@@H](c2ccc(S(C)(=O)=O)cc2)C[C@@H]2CC[C@H]1N2C	pKi	6.68
CCSc1ccc([C@H]2C[C@@H]3CC[C@H]([C@H]2C(=O)OC)N3C)cc1	pKi	8.35
COC(=O)[C@H]1[C@@H](c2ccc([S+](C)[O-])cc2)C[C@@H]2CC[C@H]1N2C (some centres unmarked)	pKi	8.37
COC(=O)[C@H]1[C@@H](c2ccc(SC)cc2)C[C@@H]2CC[C@H]1N2C	pKi	6.66

###

MEASURED_ON: UniProt:Q63380
Sequence (Q63380 1-617): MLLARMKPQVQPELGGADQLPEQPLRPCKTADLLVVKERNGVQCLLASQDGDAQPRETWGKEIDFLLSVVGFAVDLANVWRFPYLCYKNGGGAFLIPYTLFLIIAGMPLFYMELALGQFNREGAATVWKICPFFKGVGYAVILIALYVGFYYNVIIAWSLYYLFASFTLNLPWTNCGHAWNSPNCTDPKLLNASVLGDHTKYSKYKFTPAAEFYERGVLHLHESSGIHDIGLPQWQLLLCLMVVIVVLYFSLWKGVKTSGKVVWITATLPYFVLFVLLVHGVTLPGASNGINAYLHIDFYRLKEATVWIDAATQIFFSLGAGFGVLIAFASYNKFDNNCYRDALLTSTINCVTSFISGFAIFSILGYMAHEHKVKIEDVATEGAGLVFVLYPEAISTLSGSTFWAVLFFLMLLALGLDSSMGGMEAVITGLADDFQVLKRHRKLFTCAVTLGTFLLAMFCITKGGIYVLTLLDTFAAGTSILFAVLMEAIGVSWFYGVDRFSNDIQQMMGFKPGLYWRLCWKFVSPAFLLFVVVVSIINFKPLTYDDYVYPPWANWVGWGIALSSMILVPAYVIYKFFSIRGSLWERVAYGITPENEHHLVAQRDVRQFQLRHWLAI
TEST_NAME: Inhibition of [3H]nisoxetine binding at the NET
As shown below, each of these compounds has a reported Ki value.

COMPOUND	MEASURED_ON	Ki
CCSc1ccc([C@H]2C[C@@H]3CC[C@H]([C@H]2C(=O)OC)N3C)cc1	UniProt:Q63380	1170 nM
COC(=O)[C@H]1[C@@H](c2ccc(S(C)(=O)=O)cc2)C[C@@H]2CC[C@H]1N2C	UniProt:Q63380	> 10000 nM
COC(=O)[C@H]1[C@@H](c2ccc([S+](C)[O-])cc2)C[C@@H]2CC[C@H]1N2C (stereo partly shown)	UniProt:Q63380	515 nM
COC(=O)[C@H]1[C@@H](c2ccc(SC(F)(F)F)cc2)C[C@@H]2CC[C@H]1N2C	UniProt:Q63380	1900 nM
